OD (450 nm) values for the binders below.
Biological target: T1, human TIGIT-Fc (human, UniProt Q495A1 22-141, limits assumed)
T1 construct: not shown: Fc; not described
T1 sequence (looked up): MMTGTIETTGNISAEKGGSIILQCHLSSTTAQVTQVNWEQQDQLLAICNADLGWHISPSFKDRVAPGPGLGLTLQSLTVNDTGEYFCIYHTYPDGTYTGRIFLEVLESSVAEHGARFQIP
Assay: CD155 competition ELISA, single point; further: test concentration or dose not given here
// note: answer is a bare numeric in OD

TIGIT-SC4 (Fc fusion, VHH-Fc) VHH: EVQLVESGGGLVQPGGSLRLSCAASGSIDRINAMGWFRQATGKEREWVASVLRGGYTWYADSVKGRFTISADNSKNTAYLQMNSLKPEDTAVYYCARDSYSTSFWFDPWGQGTLVTVSS ... 0.579

The record that follows has no OD (450 nm) shown yet.
Give the measured OD (450 nm) for TIGIT-SC56 (Fc fusion, VHH-Fc) VHH: EVQLVESGGGLVQPGGSLRLSCAASGNTFSGGFMGWFRQAPGKEREWVASVLRGGYTWYADSVKGRFTISADNSKNTAYLQMNSLKPEDTAVYYCAHSKGYNWFDPWGQGTLVTVSS
0.335
